test system: Es-2; assay: Primary qHTS to identify gynecologic anti-cancer compounds using libraries of approved drugs and bioactive compounds (AID 1345084); details: Gynecologic cancer cell panel viability, ATPlite luminescence, 48 h; series mostly up to 57.5 µM; also: % is scaled to controls: 0 for no effect and ±100 for the full control effect; nearly all actives have a fitted effect of over 55% in size
Records with an inconclusive call do not appear. Calls of active or inactive are those of the source. Calls follow the shape of the dose curve; as a rule, active = well fitted cell-killing curve with a large enough effect; inconclusive = small, poorly fitted or top-dose-only effect, or effect the other way; inactive = flat fitted curve, though single readings scatter. Where a SMILES comes first, the peptide text is derived from it.

compound	systemTested	activity change, negative = cytotoxicity
CSCC[C@H](NC(=O)[C@H](CO)NC(=O)[C@H](CCC(=O)O)NC(C)=O)C(=O)N[C@H](C=O)CC(=O)O (Ac-ESMD-aldehyde)	Es-2	5.54% [at 11.6 µM] (inactive)
C/C=C/C=C/C=C/C(=O)N(C)C(C(=O)NC(C)C(=O)N1CCCC1C(N)=O)C(C)C (centres undefined)	Es-2	inactive
COC(=O)C(CC1(O)c2ccccc2N2C(=O)C(C)(C)N(O)C21)n1cnc2ccccc2c1=O (centres undefined)	Es-2	inactive
O=C(O)CC(CCc1ccccc1)OC1OC(CO)C(O)C(O)C1O (centres undefined)	Es-2	inactive
N#Cc1cccc(-c2c[nH]c3ncnc(N4CCOCC4)c23)c1	Es-2	inactive
COc1cc(O)c(C(=O)O)c(CCc2ccccc2)c1	Es-2	inactive
CC1CCC2(C(=O)O)CCC3(C)C(=CCC4C5(C)CCC(O)C(C)(C(=O)O)C5CCC43C)C2C1(C)O (centres undefined)	Es-2	inactive
CC1(C)CC[C@]2(C(=O)O[C@@H]3O[C@H](CO)[C@@H](O)[C@H](O)[C@H]3O)CC[C@]3(C)C(=CCC4[C@@]5(C)CC[C@H](O[C@H]6O[C@H](CO)[C@@H](O)[C@H](O[C@@H]7O[C@H](CO)[C@@H](O)[C@H](O)[C@H]7O)[C@H]6O)C(C)(C)C5CC[C@]43C)[C@@H]2C1 (some centres undefined)	Es-2	-1.42% [at 11.6 µM] (inactive)
C[C@H](/C=C/[C@@]1(O)[C@H](C)CC(=O)CC1(C)C)O[C@@H]1O[C@H](CO[C@@H]2OC[C@@H](O)[C@H](O)[C@H]2O)[C@@H](O)[C@H](O)[C@H]1O	Es-2	inactive
C=C[C@]1(C)C[C@@H](OC(=O)CSC2C[C@H]3CC[C@@H](C2)N3C)[C@]2(C)[C@H](C)CC[C@]3(CCC(=O)[C@H]32)[C@@H](C)[C@@H]1O (some centres undefined)	Es-2	inactive
O=C(/C=C/c1ccc(O)c(O)c1)O[C@H]1[C@@H]2C=CO[C@@H](O[C@@H]3O[C@H](CO)[C@@H](O)[C@H](O)[C@H]3O)[C@@H]2[C@@]2(CO)O[C@@H]12	Es-2	inactive
COC1OC(=O)C2=C1C1(C)CCCC(C)(C)C1CC2O (centres undefined)	Es-2	inactive
CC(C)[C@](O)(c1ccc2cc(OC(F)F)c(OC(F)F)cc2c1)c1cn[nH]n1	Es-2	inactive
C[C@@H]1O[C@@H](OC2C(O[C@H]3[C@H](O[C@H]4CC[C@@]5(C)C(CC[C@]6(C)C5CC=C5C7CC(C)(C)CC(O)[C@]7(C)CC[C@]56C)C4(C)C)O[C@H](C(=O)O)[C@@H](O)[C@@H]3O)OC(CO)C(O)C2O)[C@H](O)[C@H](O)[C@H]1O (some centres undefined)	Es-2	2.61% [at 11.6 µM] (inactive)

====

tested on: CRL-7250; assay: Cytotoxic Profiling of Annotated Libraries Using Quantitative High-Throughput Screening (AID 1296008); settings: Five cell lines viability, CellTiter-Glo ATP luminescence, 48-72 h; stronger effect = lower value; also: % is scaled to controls: 0 for no effect and ±100 for the full control effect; nearly all actives have a fitted effect of over 60% in size
Results filed as inconclusive are left out. Active and inactive are the calls of the source. The call rests on the fitted dose curve; in most records, active means well fitted inhibition curve with a large enough effect; inconclusive means small, poorly fitted or top-dose-only effect; inactive means flat fitted curve, though single readings scatter.
measurementLabel: max response

compound	measuredValue
C[C@@H]1O[C@@H](O[C@H]2[C@H](O[C@H]3[C@H](O[C@H]4CC[C@@]5(C)C(CC[C@]6(C)C5CC=C5[C@@H]7CC(C)(C)CC(=O)[C@]7(C)CC[C@]56C)[C@@]4(C)CO)O[C@H](C(=O)O)[C@@H](O)[C@@H]3O)O[C@H](CO)[C@H](O)[C@@H]2O)[C@H](O)[C@H](O)[C@H]1O (some centres undefined)	-2.01% (inactive)
COc1ccc(-n2c(SCC#N)nc3sc4c(c3c2=O)CCCC4)cc1	1.37% (inactive)
CC(=O)O[C@@H]1[C@H](OC(C)=O)C[C@@]2(C)C(CC[C@@H](C)[C@]23Cc2c(O)cc4c(c2O3)CN([C@@H](CCC(=O)O)C(=O)O)C4=O)C1(C)C (some centres undefined)	-2.81% (inactive)
OCC1=C[C@@H](O)[C@@H]2C=CO[C@@H](O[C@@H]3O[C@H](CO)[C@@H](O)[C@H](O)[C@H]3O)[C@H]12	-1.82% (inactive)
CC1=CC(=O)CC(C)(C)C1CO[C@@H]1O[C@H](CO)[C@@H](O)[C@H](O)[C@H]1O (some centres undefined)	-5.79% (inactive)
COC(=O)C(Cc1ccccc1)NC(=O)c1ccccc1 (centres undefined)	-7.59% (inactive)
COC(=O)[C@H](c1ccccc1Cl)N1CCC2SC(=O)C=C2C1 (some centres undefined)	-4.86% (inactive)
CC1(C)CC[C@]2(C(=O)O)CC[C@]3(C)C(=CCC4[C@@]5(C)C(=O)C[C@H](O)[C@@](C)(CO)C5CC[C@]43C)[C@@H]2C1 (some centres undefined)	-2.6% (inactive)
C=C(CCO)C(=O)OCC1OCC(OC(=O)C(=C)CCO[C@@H]2O[C@H](COC(=O)C(=C)CCO[C@@H]3O[C@H](CO)[C@@H](O)[C@H](O)[C@H]3O)[C@@H](O)[C@H](O)[C@H]2O)C(O)C1O (some centres undefined)	0.815% (inactive)
CC(=O)OC1C(O)C(C)(O)C(/C=C/C(=O)O)C2(C)CCCC(C)(C)C12 (centres undefined)	4.11% (inactive)
COC1OC(OC)C(O)(CCC2(C)C(C)CCC3(C)C2CC(O)C(O)C32CO2)C1O (centres undefined)	-2.11% (inactive)
C=C1[C@@H]2CC[C@@]3(C)[C@H](c4ccoc4)OC(=O)C[C@]13O[C@H]1CC(=O)C(C)(C)[C@H](C(O)C(=O)OC)[C@]12C (some centres undefined)	-0.794% (inactive)
C/C=C(/C)C(=O)O[C@@H]1C[C@@H](OC(=O)/C(C)=C\C)[C@@]2(C)C3C(=O)C=C(C)C2C3C1(C)C	-3.44% (inactive)
COC(=O)C(CC1(OC(=O)C(C)C)c2ccccc2N2C(=O)C(C)(C)N(O)C21)n1cnc2ccccc2c1=O (centres undefined)	-11.1% (inactive)

====

system: Zika virus NS2B-NS3 protease (unlinked complex); assay: Primary screen GU Rhodamine qHTS for Zika virus inhibitors: Unlinked NS2B-NS3 protease assay (AID 1347159); conditions: Recombinant ZIKV NS2B-NS3 protease, Rhodamine110 substrate fluorescence; series mostly up to 107 µM; also: nearly all actives have a fitted effect of over 60% in size
Results filed as inconclusive are left out. Active and inactive are the calls of the source. Calls come from the whole dose curve; as a rule, active = well fitted inhibition curve with a large enough effect; inconclusive = small, poorly fitted or top-dose-only effect; inactive = no such curve, though single readings can be large or run the other way.
Classes used: active, inactive

compound	classLabel
COC(=O)[C@H](O)[C@H]1C(C)(C)[C@H](OC(C)=O)[C@@]2(O)C(=O)[C@]1(C)C1CC[C@]3(C)C(CC(=O)O[C@H]3c3ccoc3)[C@]13O[C@@H]32 (stereo partly drawn)	inactive
OC[C@H]1O[C@@H](Oc2cc(O)cc(-c3cc4ccc(O[C@@H]5O[C@H](CO)[C@@H](O)[C@H](O)[C@H]5O)cc4o3)c2)[C@H](O)[C@@H](O)[C@@H]1O	inactive
CC1(CO)CCCC2(C)C1C(OC(=O)c1ccccc1)CC1C(=O)OCC12O (stereo not drawn)	inactive
COc1cc(CC2COC(c3ccc(OC4OC(CO)C(O)C(O)C4O)c(OC)c3)C2CO)ccc1O (stereo not drawn)	inactive
CCOC(=O)c1ccc(NC2CCCCC2)c(N)c1	inactive
C=C[C@H]1[C@H](O[C@@H]2O[C@H](CO)[C@@H](O)[C@H](OC(=O)/C=C/c3ccc(O)c(OC)c3)[C@H]2O)OC=C2C(=O)OCC[C@]21O	inactive
COc1ccc(-n2[nH]c3c(cnc4ccccc43)c2=O)cc1	inactive
COc1ccc2c(c1)C=C1Cn3c-2c(C2CCCCC2)c2ccc(cc23)C(=O)NS(=O)(=O)N(C)CCOCCN(C)C1=O	active

====

target: Cytochrome P450 2D6 (Homo sapiens) (UniProt P10635); assay: Cytochrome P450 family 2 subfamily D member 6 (CYP2D6) small molecule antagonists: luciferase biochemical (cell-free) qHTS assay (AID 1645840); conditions: P450-Glo CYP2D6 enzyme, luciferin luminescence, 1 h; series mostly up to 57.4 µM; also: nearly all actives have a fitted effect of over 55% in size
Sequence (P10635 whole entry, looked up): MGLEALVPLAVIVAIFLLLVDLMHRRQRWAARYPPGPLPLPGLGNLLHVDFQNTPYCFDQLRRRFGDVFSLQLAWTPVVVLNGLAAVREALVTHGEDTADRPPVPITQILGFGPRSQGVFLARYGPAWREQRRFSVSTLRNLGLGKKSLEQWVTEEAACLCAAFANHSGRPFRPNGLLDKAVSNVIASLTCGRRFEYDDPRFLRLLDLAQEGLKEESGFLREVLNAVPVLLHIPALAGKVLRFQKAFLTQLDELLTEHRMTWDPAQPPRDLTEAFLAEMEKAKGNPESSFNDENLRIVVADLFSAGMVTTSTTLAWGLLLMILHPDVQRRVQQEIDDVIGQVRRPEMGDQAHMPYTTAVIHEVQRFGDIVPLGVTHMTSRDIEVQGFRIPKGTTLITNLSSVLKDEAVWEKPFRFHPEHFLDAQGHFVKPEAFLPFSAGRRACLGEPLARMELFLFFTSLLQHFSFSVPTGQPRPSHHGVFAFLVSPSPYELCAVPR
Records with an inconclusive call do not appear. The source made the active and inactive calls. Calls follow the shape of the dose curve; as a rule, active = well fitted inhibition curve with a large enough effect in the repeat runs; inconclusive = weak or mixed curves; inactive = flat fitted curve, though single readings scatter.
Classes used: active, inactive

> print(dat)
                                   compound  classlabel
1  O=C(c1ccc(Cl)c([N+](=O)[O-])c1)N1CCN(c2ccccc2F)CC1    inactive
2  COc1cnc(-c2ccc(Cn3c(CC(C)(C)C(=O)O)c(SC(C)(C)C)c4cc(OC[C@@H]5Cc6ccccc6N5C(C)=O)ccc43)cc2)nc1    inactive
3  Cc1ccc(-n2nc(C(C)(C)C)cc2NC(=O)Nc2cc(COc3cccnc3)[nH]n2)cc1      active
4  COc1ccc(-n2c(SCC#N)nc3sc4c(c3c2=O)CCCC4)cc1    inactive
5  CC1(C)CC(NC(=O)C(=O)Nc2ccc(Cl)cc2)CC(C)(C)N1    inactive
6  COc1cccc(OC)c1-c1ccc(C[C@H](NC(=O)c2c(Cl)cccc2Cl)C(=O)O)cc1    inactive
7  CCC[C@H](N[C@@H](C)C(=O)N1[C@H](C(=O)O)C[C@@H]2CCCC[C@@H]21)C(=O)O    inactive
8  Cc1onc(-c2ccccc2Cl)c1C(=O)N(C)c1ccc(Cl)cc1    inactive
9  Nc1ncnc2c1C(=O)N(c1ccc(C3CCC(CC(=O)O)CC3)cc1)CCO2 (centres undefined)    inactive
